TESTED_SYSTEM: FLT3 (human)
PROTOCOL_DESCRIPTION: KINOMEscan competition binding
MEASUREMENT_PARAMETERS: compound 10.0 µM
REPORTED_PROPERTY: kinase still bound, per cent of control (%)
// units = %; emit number, no label

API: value(readout= kinase still bound, per cent of control, system= FLT3 (human), query= Cc1cn(-c2cc(C(=O)Nc3ccc(C)c(NC(=O)c4ccno4)c3)cc(C(F)(F)F)c2)cn1 )
100

Record COc1cc(C)c(Sc2cnc(NC(=O)c3ccc(CNC(C)C(C)C)cc3)s2)cc1C(=O)N1CCN(C(C)=O)CC1 (stereo unspecified) : what is its kinase still bound, per cent of control with FLT3 (human)?
100

Short answer please: kinase still bound, per cent of control, FLT3 (human), entry CCCS(=O)(=O)Nc1ccc(F)c(C(=O)c2c[nH]c3ncc(Cl)cc23)c1F
14

Record lookup: for FLT3 (human), what kinase still bound, per cent of control belongs to N#Cc1cc(-c2ccnc(Nc3ccc(-n4cnc(-c5cccnc5)n4)cc3)n2)cc(N2CCOCC2)c1 ?
18

Short answer please: kinase still bound, per cent of control, FLT3 (human), entry COc1ccc(N(C(=O)Oc2cc(C(=O)Nc3cccc(C(F)(F)F)c3)ccc2C)c2ccnc(Nc3ccc(N4CCN(C)CC4)cc3)n2)c(OC)c1
100

FLT3 (human) / kinase still bound, per cent of control / CCOc1cc(N2CCC(O)CC2)ccc1Nc1ncc2c(n1)N(C)c1ccccc1C(=O)N2C : value?
100
